All figures here come from patent US6479534B1.

TARGET_ENTITY: h5-HT2A receptors (Homo sapiens, UniProt P28223)
Sequence (P28223 whole entry): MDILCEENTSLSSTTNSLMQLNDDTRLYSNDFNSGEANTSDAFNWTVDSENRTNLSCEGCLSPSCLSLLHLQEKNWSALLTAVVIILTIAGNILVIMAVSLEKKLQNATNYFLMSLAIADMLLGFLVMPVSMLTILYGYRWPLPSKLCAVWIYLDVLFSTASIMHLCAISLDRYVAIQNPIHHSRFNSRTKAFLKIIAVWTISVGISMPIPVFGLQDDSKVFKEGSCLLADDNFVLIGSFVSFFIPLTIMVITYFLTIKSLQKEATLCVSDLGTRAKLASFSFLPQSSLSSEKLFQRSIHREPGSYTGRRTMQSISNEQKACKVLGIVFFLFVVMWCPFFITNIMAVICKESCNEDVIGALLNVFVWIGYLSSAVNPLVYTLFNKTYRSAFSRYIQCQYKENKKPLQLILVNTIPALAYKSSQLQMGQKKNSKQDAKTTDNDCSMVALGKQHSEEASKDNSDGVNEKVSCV
PROCEDURE_SUMMARY: Functional activity, FLIPR calcium assay, CHO cells expressing h5-HT2A
ASSAY_CONTEXT: FLIPR, Fluo 3-AM, CHO cells
ENDPOINT: EC50
Answers without a unit are incomplete; give the number and then its unit.

Exercise: # return recorded EC50 for entry COc1c(F)ccc2c1C1CCCC1N2CC(C)N (mixture of isomers) [Example 20]
Solution: 5.49 µM

---

TARGET_ENTITY: 5-HT2C receptor (Homo sapiens)
Sequence (P28335 33-458): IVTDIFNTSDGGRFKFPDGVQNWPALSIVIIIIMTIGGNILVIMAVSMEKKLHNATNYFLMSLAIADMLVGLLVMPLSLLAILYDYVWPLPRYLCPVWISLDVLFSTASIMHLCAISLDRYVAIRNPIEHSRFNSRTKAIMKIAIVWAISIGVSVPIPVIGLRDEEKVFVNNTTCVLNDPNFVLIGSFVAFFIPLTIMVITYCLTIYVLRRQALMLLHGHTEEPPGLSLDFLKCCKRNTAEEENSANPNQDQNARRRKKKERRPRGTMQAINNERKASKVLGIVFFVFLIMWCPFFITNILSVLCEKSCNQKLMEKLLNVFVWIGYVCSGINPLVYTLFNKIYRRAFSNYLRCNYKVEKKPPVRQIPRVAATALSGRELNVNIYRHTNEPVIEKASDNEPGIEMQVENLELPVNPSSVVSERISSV
Counter-ions that a name gives are not always drawn.
ENDPOINT: Ki (nM)
Numbers only, in nM.

compound="C[C@H](N)CN1c2cc(Cl)ccc2[C@@H]2CCC[C@@H]21 [Example 2, hydrochloride]" test_result=133

Take each entry in turn and give its Ki.
1. C[C@H](N)CN1c2cc(Cl)c(F)cc2C2CCCC21 (single isomer, unassigned; isomer i) [Example 10]
2. COc1c(F)ccc2c1C1CCCC1N2CC(C)N (mixture of isomers) [Example 20]
3. COc1cc2c(cc1F)C1CCCC1N2C[C@H](C)N (single isomer, unassigned; isomer i) [Example 19]

Solution:
1: 164; 2: 318; 3: 88
